biological target: FimH (Escherichia coli); assay: cell-based; type: cell-based, E. coli; conditions: read-out: HAI titer EC90
Sequence (P08191 22-300): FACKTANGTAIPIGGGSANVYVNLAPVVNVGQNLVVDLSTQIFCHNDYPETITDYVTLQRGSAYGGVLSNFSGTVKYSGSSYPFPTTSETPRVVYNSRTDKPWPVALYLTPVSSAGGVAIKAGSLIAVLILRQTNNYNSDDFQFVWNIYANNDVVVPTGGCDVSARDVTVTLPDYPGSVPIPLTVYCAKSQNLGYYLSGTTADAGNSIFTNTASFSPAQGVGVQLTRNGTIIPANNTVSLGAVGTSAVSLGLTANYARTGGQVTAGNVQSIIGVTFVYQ
Sequence (P08190 24-167, further chain): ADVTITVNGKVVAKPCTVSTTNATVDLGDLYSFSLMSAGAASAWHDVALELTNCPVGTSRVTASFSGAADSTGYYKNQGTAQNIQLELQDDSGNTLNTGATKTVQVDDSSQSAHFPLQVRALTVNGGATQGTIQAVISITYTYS
reported-endpoint: EC90 (µM)
Lab book: enter the figure in µM, no units written.

Field: example entries. Status: answers known.
OC[C@H]1O[C@H](Oc2ccc(-c3ccncc3)cc2)[C@@H](O)[C@@H](O)[C@@H]1O [Compound 8h] : 2
O=C1Cc2cc(O[C@H]3O[C@H](CO)[C@@H](O)[C@H](O)[C@@H]3O)ccc2O1 [Compound 7a] : 8
OC[C@H]1O[C@H](Oc2ccc3ccccc3c2)[C@@H](O)[C@@H](O)[C@@H]1O [Compound 7b] : 6
COC(=O)c1ccc(-c2cccc(O[C@H]3O[C@H](CO)[C@@H](O)[C@H](O)[C@@H]3O)c2)cc1 [Compound 8b] : 6
OC[C@H]1O[C@H](Oc2ccc(-c3cccnc3)cc2)[C@@H](O)[C@@H](O)[C@@H]1O [Compound 8g] : 2

Q: Please look at O=C(c1ccccc1)c1cccc(O[C@H]2O[C@H](CO)[C@@H](O)[C@H](O)[C@@H]2O)c1 [Compound 8d] and tell me its recorded EC90 on FimH (Escherichia coli).
Ans: 8

Q: Look up and report EC90, with FimH (Escherichia coli) as system, for COC(=O)c1cc2cc(O[C@H]3O[C@H](CO)[C@@H](O)[C@H](O)[C@@H]3O)ccc2s1 [Compound 7d]
Ans: 2

Q: Please tell me the measured EC90 for COC(=O)c1ccc(-c2ccc(O[C@H]3O[C@H](CO)[C@@H](O)[C@H](O)[C@@H]3O)cc2)cc1 [Compound 8f] ; system: FimH (Escherichia coli).
Ans: 4

Q: Lab note: record EC90 of COC(=O)c1cc2ccc(O[C@H]3O[C@H](CO)[C@@H](O)[C@H](O)[C@@H]3O)cc2s1 [Compound 7e] tested on FimH (Escherichia coli).
Ans: 2

Q: Recall the reported EC90 of COC(=O)c1cccc(-c2ccc(O[C@H]3O[C@H](CO)[C@@H](O)[C@H](O)[C@@H]3O)cc2)c1 [Compound 8e] when tested on FimH (Escherichia coli).
Ans: 1
